Below, each entry is listed alongside its reported GI50.
System: U-251
assay_text: NCI tumour cell line growth inhibition, 48 h
Activity calls are given as the source filed them. Rule as the data show it: active = GI50 up to about 1.1 µM and inactive = higher.

Worked cases, GI50 given:
COc1nc2c(c(O)c(C)c(=O)n2OC2OCC(OC(C)=O)C(OC(C)=O)C2OC(C)=O)c(=O)n1C (stereo not given) = > 100 µM (inactive)
CN(C)/C=N/S(=O)(=O)c1nn2c(C=O)c(-c3ccccc3)nc2s1 = 15.9 µM (inactive)
Cc1ccc(S(=O)(=O)NC2(C=O)CCC(C(C)(C)C)CC2)cc1 (stereo not given) = 34.3 µM (inactive)
COC1(C)C(=O)N2C1N(C(=O)OC(C)(C)C)CC2(C)C (stereo not given) = > 100 µM (inactive)
O=S(=O)(OI(OI(OS(=O)(=O)C(F)(F)F)c1ccccc1)c1ccccc1)C(F)(F)F = > 100 µM (inactive)
N#CC(C#N)=C1SCC(=O)CS1 = > 100 µM (inactive)

### Prompt Return GI50 for the following compound: `CCCCCC/C(CC(=O)CCC(=O)NCCc1ccccc1)=N\Nc1ccc([N+](=O)[O-])cc1[N+](=O)[O-]`
### Response 97.1 µM (inactive)

### Prompt Return GI50 for the following compound: `c1ccc([P+](Cc2csnn2)(c2ccccc2)c2ccccc2)cc1`
### Response > 100 µM (inactive)

### Prompt Return GI50 for the following compound: COc1cccc(CC2Cc3ccccc3CC(=O)N2)c1 (stereo not given)
### Response 47.1 µM (inactive)

### Prompt Return GI50 for the following compound: Cc1ccc(S(=O)(=O)C2CC2(Cl)Cl)cc1 (stereo not given)
### Response > 100 µM (inactive)

====

System: OVCAR-8
assay_text: NCI tumour cell line growth inhibition, 48 h
Active and inactive are the calls of the source. Cut-off read from the data, not from the text of the source: active = GI50 up to about 1.1 µM and inactive = higher.
// classify into true (active), false (inactive)

Example entries and their recorded answers appear below.
Cc1cccc(N2C(=O)C(=O)C(c3nc4ccccc4s3)/C(=N/NC(=S)NN)C2=O)c1C (stereo not given) = false
Cc1c(C)c(S(=O)(=O)N(CCCN)OCCCN)c(C)c2c1OC(C)(C)C2 = false
CCCC(=O)OC1CC(n2cc(F)c(=O)[nH]c2=O)OC1COP(=O)(OCC(Cl)(Cl)Cl)OCC(Cl)(Cl)Cl (stereo not given) = true
COC1=CC(C2c3cc4c(cc3[C@@H](Nc3ccc(F)cc3)C3COC(=O)[C@H]23)OCO4)=CC(=O)C1=O (stereo not given in full) = false
NC1=NCC(c2ccccn2)C1c1ccc(F)cc1 (stereo not given) = false
COc1cc2ccn3c4cc(OC)c(OC)cc4cc3c2cc1OC = false

### Prompt GET /call?item= `O=c1c(-c2ccccc2)c2oc(c1-c1ccccc1)CSCc1cccc(c1)CSC2` returns the recorded outcome of this test.
### Response false

### Prompt GET /call?item= `N#Cc1nc(-c2ccccc2O)oc1N` returns the recorded outcome of this test.
### Response false

====

Test system: UO-31
assay_text: NCI tumour cell line growth inhibition, 48 h
Calls of active or inactive are those of the source. Rule as the data show it: active = GI50 up to about 1.1 µM and inactive = higher.
measure_name: GI50

Worked cases, GI50 given:
CC(C)(C)[Si](C)(C)O/N=C\c1ccc(O[Si](C)(C)C(C)(C)C)cc1 = 50.9 µM (inactive)
CC(C)/C(Cl)=N/OC(=O)Nc1cccc(C(F)(F)F)c1 = 7.96 µM (inactive)
CCOC(=O)C(=C=Cc1cccs1)C(=O)c1ccccc1 = 14.3 µM (inactive)
Clc1nc(Cl)c(-c2ccccc2)c(Cl)n1 = 4.61 µM (inactive)
O=C(CC1Sc2ccccc2NC1=O)Nc1ccccc1[N+](=O)[O-] (stereo unspecified) = > 100 µM (inactive)
O=C1CCC2C(O)c3cc4c(cc3C(c3ccc5c(c3)OCO5)N12)OCO4 (stereo unspecified) = 59.7 µM (inactive)

### Prompt Return GI50 for the following compound: CCOC(=O)C(C)c1nc2cc(F)c(F)cc2[nH]c1=O (stereo unspecified)
### Response > 100 µM (inactive)

### Prompt Return GI50 for the following compound: COC(=O)N1CC2(CO)C3CC=C(C(=O)Nc4ccccc4Br)C2C1C3Br (stereo unspecified)
### Response > 50 µM (inactive)

====

Below, each entry is listed alongside its reported GI50.
Test system: NCI-H226
assay_text: NCI tumour cell line growth inhibition, 48 h
Active and inactive are the calls of the source. No stated cut-off is given here; in the data, active = GI50 up to about 1.1 µM and inactive = higher.

Worked cases, GI50 given:
Clc1ccc(CCN2CCN(CCCc3ccccc3)CC2)cc1Cl = 20.1 µM (inactive)
Nc1nc(Cl)cc(NCC2(CO)CC(CCCc3ccccc3)C2)n1 (stereo unspecified) = > 100 µM (inactive)
[N-]=[N+]=NC(c1cn(C2CC(O)C(CO)O2)c(=O)[nH]c1=O)C(Br)Br (stereo unspecified) = > 100 µM (inactive)
NS(=O)(=O)c1nnc(NC(=O)c2ccccc2)s1 = > 100 µM (inactive)
Cc1[nH]c(=O)[nH]c(=O)c1/C=C/C(=O)NC(CO)CC(C)C (stereo unspecified) = > 375 µM (inactive)

### Prompt Return GI50 for the following compound: `O=C(CSCC(=O)N/N=C/c1ccc(F)cc1)N/N=C/c1ccc(F)cc1`
### Response > 100 µM (inactive)

### Prompt Return GI50 for the following compound: `COCN1CCN=c2c1c1c3c(c4ccccc4n23)CCC1`
### Response 10.7 µM (inactive)

### Prompt Return GI50 for the following compound: C[N+](C)(C)c1ncnc2c1ncn2C1CCCO1 (stereo unspecified)
### Response > 100 µM (inactive)

### Prompt Return GI50 for the following compound: COC1=CC(C2c3cc4c(cc3[C@@H](Nc3ccc(F)cc3)C3COC(=O)[C@H]23)OCO4)=CC(=O)C1=O (stereo partly specified)
### Response 11.1 µM (inactive)

### Prompt Return GI50 for the following compound: `CCc1c2c([nH]c(=S)c1C#N)CCC2`
### Response > 100 µM (inactive)

### Prompt Return GI50 for the following compound: `CC1(C)CSCC(C)(C)C(=N/N)/C1=N\N`
### Response > 100 µM (inactive)

====

Tested on: SW-620
assay_text: NCI tumour cell line growth inhibition, 48 h
Calls of active or inactive are those of the source. Cut-off read from the data, not from the text of the source: active = GI50 up to about 1.1 µM and inactive = higher.
measure_name: GI50

CCOC(=O)C(NC(=O)CC(C)C)(NC(C)C)C(F)(F)F (stereo not given) = > 100 µM (inactive)
CCOc1ccc2c(c1)[n+]([O-])c(C(N)=O)c(N)[n+]2[O-] = > 100 µM (inactive)
C#C/C=C\CCCCCCCCCCCCCC/C=C\CCCCC#CC(O)C#CCCCC/C=C\CCCCCC/C=C/C(O)C#C (stereo not given) = 7.5 µM (inactive)
COC(OC)[C@@H]1OC[C@H](n2ccc(=O)[nH]c2=O)[C@H]1O = > 100 µM (inactive)

Now examine the next entry.
### Prompt Return GI50 for the following compound: `CC(C)OC(=O)c1ccc(NCc2cc(O)ccc2O)cc1`
### Response 4.86 µM (inactive)

====

Test system: RPMI-8226
assay_text: NCI tumour cell line growth inhibition, 48 h
The source made the active and inactive calls. Rule as the data show it: active = GI50 up to about 1.1 µM and inactive = higher. Peptide text beside a SMILES is read from it. * marks the point of attachment. Boc = CC(C)(C)OC(=O)*
measure_name: GI50

Clc1ccc(C2ON=C(c3ccccc3)N2C23CC4CC(CC(C4)C2)C3)c(Cl)c1 (configuration not stated) = > 10 µM (inactive)
O=C(CSCC(=O)N/N=C/c1ccc(F)cc1)N/N=C/c1ccc(F)cc1 = 60.8 µM (inactive)
COc1ccccc1/C=C1\S/C(=N/Nc2nc(C)c(C(C)=O)s2)NC1=O = 30.4 µM (inactive)

### Prompt Return GI50 for the following molecule: O=C(CC1Sc2ccccc2NC1=O)Nc1ccccc1[N+](=O)[O-] (configuration not stated)
### Response > 100 µM (inactive)

### Prompt Return GI50 for the following molecule: `CCCc1cn2c(/C=N/N=C(N)N)c(-c3c(OC)ccc(OC)c3[N+](=O)[O-])nc2s1`
### Response 2.54 µM (inactive)

### Prompt Return GI50 for the following molecule: Cc1ccc(S(=O)(=O)NC2(C=O)CCC(C(C)(C)C)CC2)cc1 (configuration not stated)
### Response 19.1 µM (inactive)

### Prompt Return GI50 for the following molecule: NC1=NCC(c2ccccn2)C1c1ccc(F)cc1 (configuration not stated)
### Response > 100 µM (inactive)

### Prompt Return GI50 for the following molecule: COc1ccc(C(O)CNC(=O)c2ccccc2)cc1 (configuration not stated)
### Response > 100 µM (inactive)

### Prompt Return GI50 for the following molecule: O=C1NCC2(CCN(CC3COc4ccccc4O3)CC2)N1c1ccccc1 (configuration not stated)
### Response > 100 µM (inactive)

### Prompt Return GI50 for the following molecule: COC(=O)C(Cc1ccccc1)NC(=O)C(CS)NC(=O)OC(C)(C)C (stereo not drawn) (Boc-Cys-Phe-OMe; configuration not given here)
### Response > 100 µM (inactive)

### Prompt Return GI50 for the following molecule: `NS(=O)(=O)c1nnc(NC(=O)c2ccccc2)s1`
### Response > 100 µM (inactive)

### Prompt Return GI50 for the following molecule: `CN(C)/C=N/S(=O)(=O)c1nn2c(C=O)c(-c3ccccc3)nc2s1`
### Response 3.43 µM (inactive)

### Prompt Return GI50 for the following molecule: `Clc1ccc(CCN2CCN(CCCc3ccccc3)CC2)cc1Cl`
### Response 20.9 µM (inactive)

### Prompt Return GI50 for the following molecule: `Cc1ccc2c(=O)c(C(=O)N(CCO)CCO)c[nH]c2n1`
### Response > 100 µM (inactive)

### Prompt Return GI50 for the following molecule: `c1ccc2c(CC3NCCN3)cccc2c1`
### Response > 100 µM (inactive)

### Prompt Return GI50 for the following molecule: CCCCC1(C)C=C/C(=C2/C(=O)O/C(=C\C(=O)O)C2=O)O1 (configuration not stated)
### Response > 100 µM (inactive)

### Prompt Return GI50 for the following molecule: CCOc1ccc(NC(=O)CC2C(=O)Nc3ccccc3[S+]2[O-])cc1 (configuration not stated)
### Response > 100 µM (inactive)

### Prompt Return GI50 for the following molecule: CN(C(=O)C12C3C4C5C3C1(C(=O)O)C5C42)C(C)(C)C (configuration not stated)
### Response 52 µM (inactive)

### Prompt Return GI50 for the following molecule: `COc1cccc2c(=O)oc(-c3ccc(C(C)(C)C)cc3)nc12`
### Response 34.3 µM (inactive)

### Prompt Return GI50 for the following molecule: COc1cc(OC)c(C2CC=Cc3c(OC)cc(OC)c(OC)c32)cc1OC (configuration not stated)
### Response > 100 µM (inactive)

### Prompt Return GI50 for the following molecule: CCOC(=O)C(NC(=O)CC(C)C)(NC(C)C)C(F)(F)F (configuration not stated)
### Response > 100 µM (inactive)

### Prompt Return GI50 for the following molecule: `COc1ccc(C(=O)C/C(=N/NC(N)=S)C(=O)Nc2ccccc2)cc1`
### Response > 100 µM (inactive)
